measurement_target: Interleukin-23 receptor (Homo sapiens, UniProt Q5VWK5)
Sequence (Q5VWK5 whole entry): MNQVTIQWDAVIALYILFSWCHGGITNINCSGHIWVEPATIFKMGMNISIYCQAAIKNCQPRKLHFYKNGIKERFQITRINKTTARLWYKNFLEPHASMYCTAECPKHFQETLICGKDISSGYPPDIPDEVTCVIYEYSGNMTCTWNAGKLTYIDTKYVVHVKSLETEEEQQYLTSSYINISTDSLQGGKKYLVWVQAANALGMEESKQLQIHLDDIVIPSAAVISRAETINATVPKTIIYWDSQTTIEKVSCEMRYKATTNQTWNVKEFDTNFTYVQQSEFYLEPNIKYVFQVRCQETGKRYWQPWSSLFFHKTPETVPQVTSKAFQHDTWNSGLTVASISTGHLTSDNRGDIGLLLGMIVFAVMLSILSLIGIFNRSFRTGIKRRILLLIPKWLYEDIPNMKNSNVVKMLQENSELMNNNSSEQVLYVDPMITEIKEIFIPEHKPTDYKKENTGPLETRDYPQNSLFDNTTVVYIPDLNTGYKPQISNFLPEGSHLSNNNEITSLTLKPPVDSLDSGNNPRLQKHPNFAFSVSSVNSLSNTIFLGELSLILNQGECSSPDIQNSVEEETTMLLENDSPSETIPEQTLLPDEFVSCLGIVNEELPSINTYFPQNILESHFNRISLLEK
protocol_text: Inhibition of interleukin-23 binding to human interleukin-23 receptor incubated for 2 hrs by competitive binding ELISA
Where a SMILES comes first, the peptide text is derived from it.
Listing of recorded IC50 by entry.

Example entries and their recorded answers appear below.
# molecule, IC50
measured = [
    ("CC(=O)NCCCC[C@H](NC(=O)[C@](C)(CCCCN)NC(=O)[C@H](Cc1ccc2ccccc2c1)NC(=O)[C@H](Cc1ccc(N)cc1)NC(=O)[C@@H](NC(=O)[C@H](CCC(N)=O)NC(=O)[C@H](Cc1c[nH]c2ccccc12)NC(=O)[C@@H](NC(=O)[C@H](CCC(N)=O)NC(=O)[C@@H](NC(C)=O)C(C)(C)S)[C@@H](C)O)C(C)(C)S)C(=O)N[C@@H](CC(N)=O)C(=O)NCC(N)=O", "100 to 1000 nM"),
    ("CC(=O)N[C@@H](CS)C(=O)N[C@@H](CCCCN)C(=O)N[C@H](C(=O)N[C@@H](Cc1c[nH]c2ccccc12)C(=O)N[C@H](C(=O)N[C@@H](CS)C(=O)N[C@@H](Cc1ccc(O)cc1)C(=O)N[C@@H](Cc1c[nH]c2ccccc12)C(=O)N[C@@H](Cc1cnc[nH]1)C(=O)N[C@@H](CCC(=O)O)C(=O)N[C@@H](Cc1ccccc1)C(=O)NCC(N)=O)[C@@H](C)O)[C@@H](C)O (Ac-CKTWTCYWHEFG-NH2)", "< 500 nM"),
]

Now turn to the next molecule.
For CC(=O)N[C@@H](CS)C(=O)N[C@@H](CCC(N)=O)C(=O)N[C@H](C(=O)N[C@@H](Cc1c[nH]c2ccccc12)C(=O)N[C@@H](CCC(N)=O)C(=O)N[C@@H](CS)C(=O)N[C@@H](Cc1ccc(O)cc1)C(=O)N[C@@H](Cc1c[nH]c2ccccc12)C(=O)N[C@@H](CCCNC(=N)N)C(=O)N[C@@H](CCCCN)C(=O)N[C@@H](CC(N)=O)C(=O)NCC(=O)NCCOCC(=O)N[C@H](CCCCN)C(N)=O)[C@@H](C)O the molecule record lists IC50 as < 500 nM

###

protocol_text: Half life in simulated intestinal fluid at 20 uM by LC-MS/MS analysis
Format: ADME
Where a SMILES comes first, the peptide text is derived from it. [ ]: non-standard residue; d: D form. 2Nal = N[C@@H](Cc1ccc2ccccc2c1)C(=O)O; Pen = CC(C)(S)[C@H](N)C(=O)O; αMeK = C[C@](N)(CCCCN)C(=O)O
Listing of recorded half-life at 20 µM by entry.

# compound, observed_value
measured = [
    ("CC(=O)N[C@H](C(=O)N[C@@H](CCC(N)=O)C(=O)N[C@H](C(=O)N[C@@H](Cc1c[nH]c2ccccc12)C(=O)N[C@@H](CCC(N)=O)C(=O)N[C@H](C(=O)N[C@@H](Cc1ccc2ccccc2c1)C(=O)N[C@@H](Cc1ccc2ccccc2c1)C(=O)N[C@@](C)(CCCCN)C(=O)N[C@@H](CCC(=O)O)C(=O)N[C@@H](CC(N)=O)C(=O)NCC(N)=O)C(C)(C)S)[C@@H](C)O)C(C)(C)S (Ac-[Pen]QTWQ[Pen][2Nal][2Nal][αMeK]ENG-NH2)", "3 to 6 h"),
]

Now turn to the next compound.
For CC(=O)NCCCC[C@H](NC(=O)[C@](C)(CCCCN)NC(=O)[C@H](Cc1ccc2ccccc2c1)NC(=O)[C@H](Cc1ccc(C(N)=O)cc1)NC(=O)[C@@H]1CSCC[C@H](NC(C)=O)C(=O)N[C@@H](CCC(N)=O)C(=O)N[C@@H]([C@@H](C)O)C(=O)N[C@@H](Cc2c[nH]c3ccccc23)C(=O)N[C@@H](CCC(N)=O)C(=O)N1)C(=O)N[C@@H](CC(N)=O)C(=O)NCC(N)=O the compound record lists half-life at 20 µM as 1 to 3 h
